assaySummary: protein stability index of a GFP-peptide fusion (GPS, HEK-293T) (PSI 1-6); higher = more stable;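 further: 24-mer peptide tiles fused after GFP, lentivirally expressed, FACS-sorted into six equal bins by GFP/DsRed ratio, decoded by Illumina sequencing, PSI is the read-weighted mean bin number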
details: treatment: MLN4924 1 uM, 8 h; c terminus: a fixed tail appended
Mark not fulfilled for protein stability index values under 3, and fulfilled for everything at or above.

Query: Could you verify whether the entry SLSELLSQLDSGVSQAVEGPEELS [RIPK4] shows protein stability index of no less than 3?
Result: fulfilled

Query: // inclusive: protein stability index at least 3? input: RAYRFVQGKDWGFKKFIRRDFLLD [SPOPL]
Result: not fulfilled

Query: Hi team, for KKMEQNKTAATRYRQKKRAEQEAL [ATF4] , is the recorded protein stability index at or above 3?
Result: fulfilled

Query: Does the sequence IDNTTVIYNSNIFTDPFFIVETLC [KCNA1] have recorded protein stability index that is 3 or more?
Result: not fulfilled

Query: Is the recorded value of protein stability index equal to or greater than 3 for this sequence? HDGSSYLNSVERYDPKTNQWSSDV [KLHL20]
Result: fulfilled

Query: // inclusive: protein stability index at least 3? input: ENIQDITVNIHRLHVKRSMGWKKA [ZMYND11]
Result: fulfilled

Query: Check if protein stability index >= 3 (inclusive). Item: VQELVLEDLQDGDVRMGGSFRGAF [NET1]
Result: fulfilled

Query: Exam item: decide whether the reported protein stability index for PWEPPVLPILTWPVLQSRTGLVYD [HDAC6] is at least 3.
Result: fulfilled

Query: hey, is protein stability index for this one >= 3? DQDTLAPLPHPGAAPWPMAFPYQY [DVL3]
Result: fulfilled

Query: Would you say VGSLSWLRKQLQPTHCKYEGPRKA shows protein stability index at minimum 3?
Result: not fulfilled

Query: Record QGNGLFYSSGPQSWYPKANNQDFI [ZC2HC1C] ; criterion: protein stability index no lower than 3. Met?
Result: not fulfilled

Query: Is protein stability index for HLKRHFMFRNHLCLVFELLSYNLY [DYRK1B] at or above 3?
Result: fulfilled

Query: Entry PVSDTPDEGDEPMPIPEDLSTTSG [IKZF1] : is its protein stability index no less than 3?
Result: fulfilled

Query: Please indicate if the recorded protein stability index for SFPLWYEEALKDEEERAQDRIATT [MAGEA10] meets or exceeds 3.
Result: fulfilled

Query: Check the entry GVGTSMEGASPLSERCQRQLQSLC [FANCE] : does protein stability index equal or exceed 3?
Result: fulfilled

Query: Please tell me: is the sequence HFHRTLKEACDQHGPDLYPKFKKW [CPOX] at or over 3 in terms of protein stability index?
Result: not fulfilled

Query: protein stability index >= 3 for PGQGGPASTPAQTAAGGQGGPGGP [NR2F2] ?
Result: fulfilled

Query: Please check the record AKPEALSSPKFREEAAFPGRRVNA [ELOA2] and state if its protein stability index is at or above 3.
Result: fulfilled

Query: Could you please find out whether NAGSYIPSYTSWYPSAHQEAMQQP [DLX1] has protein stability index that meets 3 or exceeds it?
Result: not fulfilled

Query: State whether the measured protein stability index reaches 3, counting equality as reaching it, for INSTAPFEEQENYFLLCDVLPEDR [ZNF277]
Result: fulfilled

Query: Quick check, protein stability index >= 3? PQLASLCLDTIDKSTMDAISAEGF [BTBD1]
Result: fulfilled

Query: Could you verify whether the entry NSDPEVVNVDNLLAAAVVQEHSNS [C18orf25] shows protein stability index of no less than 3?
Result: fulfilled

Query: Decide: protein stability index of HIIRIGDLKPTGEIPKQVKVKKLK [DENND6A] >= 3?
Result: fulfilled

Query: Can EKNIILEEKIQVLQQQNEDLKARI [MTUS2] be said to have protein stability index at or above 3?
Result: fulfilled

Query: Given VLVKDNGLGCKDLDLIFHVALPTE [TENT5C] , state whether its protein stability index is at least 3.
Result: not fulfilled

Query: Assess whether reported protein stability index for PEPRSEVVPARLKRASAPTFDNDY [RIPK4] sits at 3 or higher.
Result: fulfilled

Query: Would you say WAISSWFRRGPAPQDQAGPGGAPR [CLPTM1] shows protein stability index at minimum 3?
Result: fulfilled

Query: Textbook exercise: given the entry SGDFRSSTEDMERALSEYLAVFAR [P3H4] , state whether its protein stability index is greater than or equal to 3.
Result: fulfilled

Query: Please check the record INVWDVLKGSRVSILFGHENRVST [GNB5] and state if its protein stability index is at or above 3.
Result: not fulfilled

Query: Decide: is the reported value of protein stability index for GIENEEDTSKQKKMETMYPFIVTL [ZNF449] equal to or greater than 3?
Result: not fulfilled

Query: Determine whether this sequence has protein stability index no lower than 3: ELAALLIERGASLEEVNDEGYTPL [ANKRD17]
Result: not fulfilled

Query: hey, is protein stability index for this one >= 3? CCLVKMESLEPDAQVLMLGQILEL [FANCE]
Result: not fulfilled

Query: Assess whether reported protein stability index for NDNSPSFATPEREMRISESAASGA [PCDHGC5] sits at 3 or higher.
Result: fulfilled

Query: Confirm if protein stability index reported for the sequence YLDVDLTLTREQTERLSHQITSRV [RTN2] is 3 or above.
Result: fulfilled

Query: Given EMDWAQMACHRCLVYLGDLSRYQN [SMG5] , state whether its protein stability index is at least 3.
Result: not fulfilled

Query: Quick check: does SPQIQRSAHRALYRRHVLGIVLQG [TMEM175] have protein stability index greater than or equal to 3?
Result: not fulfilled

Query: State whether the measured protein stability index reaches 3, counting equality as reaching it, for KYLKLQDTCRTQLVWLVRELVKSG [INTS3]
Result: not fulfilled

Query: Dear colleague, could you confirm whether IVITGDADIDHDQALAQAIKEAKE [EPB41L3] has protein stability index at or above 3?
Result: fulfilled

Query: // inclusive: protein stability index at least 3? input: IQDRLSNTLQTYIRCRHPPPGSHL [VDR]
Result: not fulfilled

Query: Threshold query (protein stability index >= 3) on TPAGLPPSRAKPPTEGAGSPAKAS [FBF1]
Result: fulfilled

Query: Does DGYGMTPLLSASVTGHTNIVDFLT [FEM1C] have a reported protein stability index of at least 3?
Result: fulfilled

Query: Check if protein stability index >= 3 (inclusive). Item: PSVADNLLASSDAALSASMASLLE [SERTAD1]
Result: fulfilled

Query: Item CAHCRAHLANHDDLISKSFQGSQG [YPEL3] with protein stability index of 3 or above?
Result: not fulfilled

Query: Could you tell me if the measured protein stability index of GFKHRLWVYSGRRGVHCWVCDESV [PRIM1] reaches 3 or more?
Result: not fulfilled

Query: Reported protein stability index reaches at least 3 for EHQRSHTGERPHQCIECGKSFNRH [ZSCAN9] ?
Result: fulfilled

Query: Kindly determine if protein stability index recorded for AFREFDRDRDGRITVAELREAVPA [CABP4] is above or exactly 3.
Result: fulfilled
